The values you see were collected from the supplement of paper PMC10201428.

B1: library; a variant is named by its letters at N, in order (parent)
chain: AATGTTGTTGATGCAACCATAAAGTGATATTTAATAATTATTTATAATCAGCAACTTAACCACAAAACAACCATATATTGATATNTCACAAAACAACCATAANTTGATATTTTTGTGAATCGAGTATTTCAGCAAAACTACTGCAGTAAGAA

# Variants of: B1
# TEST_SUMMARY: relative integration efficiency (T-RL orientation) vs wild-type transposon end (log2 (normalized fold change)); transposon end mutated: left end; higher = more efficient transposition
# CONDITION_DESCRIPTION: with VchCAST RNA-guided transposition machinery (E. coli BL21(DE3) host, lacZ target)
Classify as follows. Reported relative integration efficiency (log2) greater than or equal to -0.2: T. Reported relative integration efficiency (log2) below: F.

I'd appreciate it if you could say whether TA G24A T30A A70C T76A T86G A96C T112G T113C has relative integration efficiency (log2) at least equal to -0.2. T

I'd appreciate it if you could say whether CG A27C has relative integration efficiency (log2) at least equal to -0.2. F

I'd appreciate it if you could say whether GG T82A A83T T84A has relative integration efficiency (log2) at least equal to -0.2. F

I'd appreciate it if you could say whether CG G106C A107T has relative integration efficiency (log2) at least equal to -0.2. F

I'd appreciate it if you could say whether CG A95C has relative integration efficiency (log2) at least equal to -0.2. F

I'd appreciate it if you could say whether CG A96C C97A has relative integration efficiency (log2) at least equal to -0.2. F

I'd appreciate it if you could say whether CG C63G A64T A65T A66T has relative integration efficiency (log2) at least equal to -0.2. T

I'd appreciate it if you could say whether CG A53G has relative integration efficiency (log2) at least equal to -0.2. T

I'd appreciate it if you could say whether GG T86A has relative integration efficiency (log2) at least equal to -0.2. F

I'd appreciate it if you could say whether CG A29C T30G has relative integration efficiency (log2) at least equal to -0.2. F

I'd appreciate it if you could say whether CG A44T T45A has relative integration efficiency (log2) at least equal to -0.2. T

I'd appreciate it if you could say whether CG T78G T79G G80T A81C has relative integration efficiency (log2) at least equal to -0.2. F

I'd appreciate it if you could say whether CG T74G A75C T76G A77C has relative integration efficiency (log2) at least equal to -0.2. F

I'd appreciate it if you could say whether CG A29T T30A T31A T32A has relative integration efficiency (log2) at least equal to -0.2. F

I'd appreciate it if you could say whether CG A75C T76G has relative integration efficiency (log2) at least equal to -0.2. F

I'd appreciate it if you could say whether CG C52G A53T has relative integration efficiency (log2) at least equal to -0.2. T

I'd appreciate it if you could say whether CG T113A T114A G115C T116A has relative integration efficiency (log2) at least equal to -0.2. T

I'd appreciate it if you could say whether CG C72A has relative integration efficiency (log2) at least equal to -0.2. F

I'd appreciate it if you could say whether CG T57G A58C has relative integration efficiency (log2) at least equal to -0.2. F

I'd appreciate it if you could say whether CG A54C has relative integration efficiency (log2) at least equal to -0.2. T

I'd appreciate it if you could say whether CG A58T A59T has relative integration efficiency (log2) at least equal to -0.2. T

I'd appreciate it if you could say whether CG A29T has relative integration efficiency (log2) at least equal to -0.2. T

I'd appreciate it if you could say whether CG A44G has relative integration efficiency (log2) at least equal to -0.2. T

I'd appreciate it if you could say whether CG A29G has relative integration efficiency (log2) at least equal to -0.2. F

I'd appreciate it if you could say whether TA A16C G24T T32G A33C A70C T76A T84A C87A A102T T111C T113C has relative integration efficiency (log2) at least equal to -0.2. F

I'd appreciate it if you could say whether CG T30G T31G has relative integration efficiency (log2) at least equal to -0.2. F

I'd appreciate it if you could say whether CG T116A G117C A118T A119T has relative integration efficiency (log2) at least equal to -0.2. T

I'd appreciate it if you could say whether CG A33C C87A T113G has relative integration efficiency (log2) at least equal to -0.2. T

I'd appreciate it if you could say whether CG T41A A44G A46T A50C A53T A54C C55A T56C T57A A59T C60T A62C has relative integration efficiency (log2) at least equal to -0.2. F

I'd appreciate it if you could say whether CG T114G G115T T116G G117T has relative integration efficiency (log2) at least equal to -0.2. F

I'd appreciate it if you could say whether CG A46C A47C has relative integration efficiency (log2) at least equal to -0.2. F

I'd appreciate it if you could say whether CG T32A T86A T112A has relative integration efficiency (log2) at least equal to -0.2. T

I'd appreciate it if you could say whether TG A23G G24T A33T T76A T78G C87A has relative integration efficiency (log2) at least equal to -0.2. T

I'd appreciate it if you could say whether CG G51T has relative integration efficiency (log2) at least equal to -0.2. T

I'd appreciate it if you could say whether CG T25G T79G T105G has relative integration efficiency (log2) at least equal to -0.2. F

I'd appreciate it if you could say whether CG A22T A23T G24C T25A has relative integration efficiency (log2) at least equal to -0.2. F

I'd appreciate it if you could say whether CG T125G has relative integration efficiency (log2) at least equal to -0.2. T

I'd appreciate it if you could say whether CG G10T A11C T12G G13T has relative integration efficiency (log2) at least equal to -0.2. F

I'd appreciate it if you could say whether CG A54C C55A T56G T57G has relative integration efficiency (log2) at least equal to -0.2. F

I'd appreciate it if you could say whether CG T38G T39G has relative integration efficiency (log2) at least equal to -0.2. T

I'd appreciate it if you could say whether CG A22T G24T T31C A33C has relative integration efficiency (log2) at least equal to -0.2. T

I'd appreciate it if you could say whether CG A27C T28G has relative integration efficiency (log2) at least equal to -0.2. F

I'd appreciate it if you could say whether CG A119C has relative integration efficiency (log2) at least equal to -0.2. T

I'd appreciate it if you could say whether TA T76A T78G C87A T104G T113A has relative integration efficiency (log2) at least equal to -0.2. F

I'd appreciate it if you could say whether CG A83C has relative integration efficiency (log2) at least equal to -0.2. T
